Assay: Compound was tested for solubility in a model parenteral system consisting of 30% poltethylene glycol 200 (PEG-200)/water (*, mixture of amophorus and crystalline material)
Format: ADME
Settings: read-out: S
Measured Attribute: solubility (µg/mL)

INSERT INTO assay_data (smiles, observed_result) VALUES
  ('CN(C)Cc1ccc2n1Cc1ccccc1N(C(=O)c1ccc(NC(=O)c3ccccc3-c3ccccc3)cc1O)C2', 1900),
  ('CN(C)Cc1ccc2n1Cc1ccccc1N(C(=O)c1ccc(NC(=O)c3ccccc3-c3ccccc3)cc1Cl)C2', 720);

---

Test: Compound was tested for solubility in a model parenteral system consisting of 30% poltethylene glycol 200 (PEG-200)/water
Format: ADME
Settings: read-out: S
Measured Attribute: solubility (µg/mL)

INSERT INTO results (smiles, unit_of_measurement, observed_result) VALUES
  ('CN1CCN(C(=O)c2ccc3n2Cc2ccccc2N(C(=O)c2ccc(NC(=O)c4ccccc4-c4ccccc4)cc2Cl)C3)CC1.O=C(O)CC(O)(CC(=O)O)C(=O)O', 'µg/mL', 1700),
  ('COc1cc(NC(=O)c2ccccc2-c2ccccc2)ccc1C(=O)N1Cc2ccc(CN3CCN(C)CC3)n2Cc2ccccc21', 'µg/mL', 300),
  ('COc1cc(C(=O)N2Cc3ccc(CN(C)C)n3Cc3ccccc32)ccc1NC(=O)c1ccccc1-c1ccccc1', 'µg/mL', 2200);
